# Tested on: HOP-62
# condition: HOP-62 (Non-Small Cell Lung Cancer), 48 h, SRB
Rule: TGI of 20 µM or more gives y; anything lower gives n.

Inquiry: Is it the case that "O=C1NC(=S)S/C1=C\C(Cl)=C\c1ccc([N+](=O)[O-])cc1" has TGI reaching or exceeding 20 µM?
Reply text: y

Inquiry: Is it the case that O=C(O)C(Cc1ccccc1)N1C(=O)/C(=C/C(Cl)=C/c2ccc([N+](=O)[O-])cc2)SC1=S (centres unmarked) has TGI reaching or exceeding 20 µM?
Reply text: n

Inquiry: Is it the case that "O=C1/C(=C/C(Cl)=C/c2ccc([N+](=O)[O-])cc2)SC(=S)N1c1ccc(O)cc1" has TGI reaching or exceeding 20 µM?
Reply text: n

Inquiry: Is it the case that "O=C1/C(=C/C(Cl)=C/c2ccc([N+](=O)[O-])cc2)SC(=S)N1/N=C\C(Cl)=C\c1ccc([N+](=O)[O-])cc1" has TGI reaching or exceeding 20 µM?
Reply text: y

----------
# Tested on: MALME-3M
# assay summary: NCI DTP 60 cell line screen, SRB
# condition: Homo sapiens, Malme-3M, 48 h, read-out: LC50
measured endpoint: CC50 (µM)
Express it in µM; write the number only.

O=C1NC(=S)S/C1=C\C(Cl)=C\c1ccc([N+](=O)[O-])cc1 [Compound 2b] :: 44.6

Inquiry: Tell me the measured CC50 of O=C1/C(=C/C(Cl)=C/c2ccc([N+](=O)[O-])cc2)SC(=S)N1c1ccc(O)cc1 [Compound 2f] , please.
Reply text: 94.5

----------
SI (selectivity index), GI50 listing for selected molecules.
# Tested on: Renal Cancer subpanel
# assay summary: cells
# condition: full panel MG_MID / Renal Cancer subpanel MG_MID
// response body must contain only the number

# annotated cases, reported SI (selectivity index), GI50 shown
O=C1NC(=S)S/C1=C\C(Cl)=C\c1ccc([N+](=O)[O-])cc1 :: 0.77
O=C1/C(=C/C(Cl)=C/c2ccc([N+](=O)[O-])cc2)SC(=S)N1/N=C\C(Cl)=C\c1ccc([N+](=O)[O-])cc1 :: 1.07
O=C(O)C(Cc1ccccc1)N1C(=O)/C(=C/C(Cl)=C/c2ccc([N+](=O)[O-])cc2)SC1=S (stereo not shown) :: 2.01

Attention now shifts to the item below.
Inquiry: Tell me the measured SI (selectivity index), GI50 of "O=C1/C(=C/C(Cl)=C/c2ccc([N+](=O)[O-])cc2)SC(=S)N1c1ccc(O)cc1" , please.
Reply text: 0.98

----------
# Test system: UACC-62
# assay summary: NCI DTP 60 cell line screen, SRB
# condition: UACC-62 (Melanoma), 48 h, SRB
measured endpoint: TGI (µM)
Express it in µM; write the number only.

O=C1/C(=C/C(Cl)=C/c2ccc([N+](=O)[O-])cc2)SC(=S)N1c1ccc(O)cc1 :: 3.85
O=C(O)CCN1C(=O)/C(=C/C(Cl)=C/c2ccc([N+](=O)[O-])cc2)SC1=S :: 2.97
O=C(O)C(Cc1ccccc1)N1C(=O)/C(=C/C(Cl)=C/c2ccc([N+](=O)[O-])cc2)SC1=S (centres unmarked) :: 4.85
O=C1/C(=C/C(Cl)=C/c2ccc([N+](=O)[O-])cc2)SC(=S)N1/N=C\C(Cl)=C\c1ccc([N+](=O)[O-])cc1 :: 28.1

Attention now shifts to the item below.
Inquiry: Tell me the measured TGI of "O=C1NC(=S)S/C1=C\C(Cl)=C\c1ccc([N+](=O)[O-])cc1" , please.
Reply text: 12.5

----------
# System: MOLT-4
# condition: MOLT-4 (Leukemia), 48 h, SRB
measured endpoint: TGI (µM)
Express it in µM; write the number only.

# annotated cases, reported TGI shown
O=C(O)CCN1C(=O)/C(=C/C(Cl)=C/c2ccc([N+](=O)[O-])cc2)SC1=S :: 19.7
O=C1NC(=S)S/C1=C\C(Cl)=C\c1ccc([N+](=O)[O-])cc1 :: 14.2

Attention now shifts to the item below.
Inquiry: Tell me the measured TGI of "O=C1/C(=C/C(Cl)=C/c2ccc([N+](=O)[O-])cc2)SC(=S)N1/N=C\C(Cl)=C\c1ccc([N+](=O)[O-])cc1" , please.
Reply text: 8.95

----------
# System: NCI-H23
# assay summary: cells
# condition: Homo sapiens, NCI-H23, 48 h, read-out: LC50
measured endpoint: CC50 (µM)
Express it in µM; write the number only.

O=C1NC(=S)S/C1=C\C(Cl)=C\c1ccc([N+](=O)[O-])cc1 [Compound 2b] :: 45.5
O=C1/C(=C/C(Cl)=C/c2ccc([N+](=O)[O-])cc2)SC(=S)N1c1ccc(O)cc1 [Compound 2f] :: 6.52

Attention now shifts to the item below.
Inquiry: Tell me the measured CC50 of O=C(O)CCN1C(=O)/C(=C/C(Cl)=C/c2ccc([N+](=O)[O-])cc2)SC1=S [Compound 2h] , please.
Reply text: 7.19

----------
# Tested on: Colon Cancer subpanel
measured endpoint: GI50 (µM)
Express it in µM; write the number only.

# annotated cases, reported GI50 shown
O=C1NC(=S)S/C1=C\C(Cl)=C\c1ccc([N+](=O)[O-])cc1 :: 3.27
O=C1/C(=C/C(Cl)=C/c2ccc([N+](=O)[O-])cc2)SC(=S)N1/N=C\C(Cl)=C\c1ccc([N+](=O)[O-])cc1 :: 20.7

Inquiry: Tell me the measured GI50 of O=C(O)C(Cc1ccccc1)N1C(=O)/C(=C/C(Cl)=C/c2ccc([N+](=O)[O-])cc2)SC1=S (stereo not drawn) , please.
Reply text: 2.19

----------
# System: IGROV1
# assay summary: NCI DTP 60 cell line screen, SRB
# condition: Homo sapiens, IGROV-1, 48 h, read-out: LC50
CC50 listing for selected molecules.

# annotated cases, reported CC50 shown
O=C1/C(=C/C(Cl)=C/c2ccc([N+](=O)[O-])cc2)SC(=S)N1c1ccc(O)cc1 :: > 100 µM
O=C(O)C(Cc1ccccc1)N1C(=O)/C(=C/C(Cl)=C/c2ccc([N+](=O)[O-])cc2)SC1=S (stereo not drawn) :: > 100 µM

Attention now shifts to the item below.
Inquiry: Tell me the measured CC50 of "O=C1NC(=S)S/C1=C\C(Cl)=C\c1ccc([N+](=O)[O-])cc1" , please.
Reply text: > 50 µM

----------
# Test system: CAKI-1
# assay summary: NCI DTP 60 cell line screen, SRB
# condition: Homo sapiens, CAKI-1, 48 h, read-out: LC50
CC50 listing for selected molecules.

# annotated cases, reported CC50 shown
O=C1NC(=S)S/C1=C\C(Cl)=C\c1ccc([N+](=O)[O-])cc1 :: > 50 µM
O=C1/C(=C/C(Cl)=C/c2ccc([N+](=O)[O-])cc2)SC(=S)N1/N=C\C(Cl)=C\c1ccc([N+](=O)[O-])cc1 :: > 100 µM

Attention now shifts to the item below.
Inquiry: API: value(readout= CC50, system= CAKI-1, query= "O=C1/C(=C/C(Cl)=C/c2ccc([N+](=O)[O-])cc2)SC(=S)N1c1ccc(O)cc1" )
Reply text: > 100 µM

----------
# Tested on: MDA-MB-231/ATCC
# assay summary: NCI DTP 60 cell line screen, SRB
# condition: Homo sapiens, MDA-MB-231, 48 h, read-out: LC50
measured endpoint: CC50

O=C(O)C(Cc1ccccc1)N1C(=O)/C(=C/C(Cl)=C/c2ccc([N+](=O)[O-])cc2)SC1=S (stereo not drawn) :: > 100 µM

Inquiry: Tell me the measured CC50 of "O=C1NC(=S)S/C1=C\C(Cl)=C\c1ccc([N+](=O)[O-])cc1" , please.
Reply text: > 50 µM

Inquiry: Tell me the measured CC50 of "O=C1/C(=C/C(Cl)=C/c2ccc([N+](=O)[O-])cc2)SC(=S)N1/N=C\C(Cl)=C\c1ccc([N+](=O)[O-])cc1" , please.
Reply text: > 100 µM

----------
# Tested on: MALME-3M
# assay summary: NCI DTP 60 cell line screen, SRB
# condition: Homo sapiens, Malme-3M, 48 h, read-out: LC50
CC50 listing for selected compounds.

# annotated cases, reported CC50 shown
O=C(O)CCN1C(=O)/C(=C/C(Cl)=C/c2ccc([N+](=O)[O-])cc2)SC1=S [Compound 2h] :: > 100 µM
O=C(O)C(Cc1ccccc1)N1C(=O)/C(=C/C(Cl)=C/c2ccc([N+](=O)[O-])cc2)SC1=S (stereo not drawn) [Compound 2j] :: > 100 µM

Inquiry: Tell me the measured CC50 of O=C1/C(=C/C(Cl)=C/c2ccc([N+](=O)[O-])cc2)SC(=S)N1/N=C\C(Cl)=C\c1ccc([N+](=O)[O-])cc1 [Compound 2c] , please.
Reply text: > 100 µM
